Test: inhibitors of mutant huntingtin aggregation, primary screen, imaging, exon1htt(103Q)mCFP cells, high-content imaging (AID 483);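 further: compound exposure lasted 3 days before fixation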
Details: exon1htt(103Q)mCFP cell line, aggregate imaging, at 2 µM; stronger effect = higher value
The following compounds are listed with their measured inhibition of aggregation values.
// note: answer is a bare numeric in %

{"columns": ["Compound", "inhibition of aggregation [%]"],
 "data": [
  ["CC1(C)CC(=O)C=C(NCc2ccncc2)C1", -13.1],
  ["Cc1cc(-c2ccccc2)nnc1NCCN1CCOCC1", -29.4],
  ["COc1cc(-c2nn3c(-c4cccnc4)nnc3s2)cc(OC)c1OC", -9.6],
  ["CC(NC(=O)Nc1nccs1)(C(F)(F)F)C(F)(F)F", 0.8]
]}

Q: # get_value(readout='inhibition of aggregation', item= CCOC(=O)C1=C(CSc2nc(C)cc(C)c2C#N)OC(N)=C(C#N)C1c1cccs1 (centres undefined) )
Result: -14.2

Q: # query: inhibition of aggregation of entry CN1CCN(c2nc3c(c(=O)n(C)c(=O)n3C)n2Cc2cccc3ccccc23)CC1
Result: 6.9

Q: Need inhibition of aggregation of CCCCOc1ccc(CC(=O)NO)cc1 , thanks.
Result: -11.8

====

A collection of compounds and their measured slope
Target: Alpha-2C adrenergic receptor (Homo sapiens) (UniProt P18825)
Sequence (P18825 whole entry, looked up): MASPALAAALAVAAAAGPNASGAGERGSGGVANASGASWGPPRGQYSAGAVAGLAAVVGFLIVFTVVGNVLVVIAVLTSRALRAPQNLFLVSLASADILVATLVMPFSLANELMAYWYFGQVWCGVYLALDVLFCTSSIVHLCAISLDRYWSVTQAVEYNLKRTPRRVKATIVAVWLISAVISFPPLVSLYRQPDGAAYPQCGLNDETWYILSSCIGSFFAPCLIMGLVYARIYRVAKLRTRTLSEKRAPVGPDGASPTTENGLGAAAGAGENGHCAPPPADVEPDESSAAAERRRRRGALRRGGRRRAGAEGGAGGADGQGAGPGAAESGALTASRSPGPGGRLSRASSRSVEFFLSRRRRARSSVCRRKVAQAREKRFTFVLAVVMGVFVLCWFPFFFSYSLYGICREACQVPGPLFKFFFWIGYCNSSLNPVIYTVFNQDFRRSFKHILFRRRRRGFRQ
Assay: modulators of alpha2C/GIRK thallium flux, primary screen, cell-based, HEK293 alpha2C/GIRK1/2 (AID 624);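 further: slope of fluorescence ratio to pre-addition baseline per second over 15 to 24 s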
Conditions: thallium flux BTC fluorescence, at 10 µM, actives lie on both sides
// no unit, no text: just the number

Example compounds with recorded slope:
{"columns": ["Compound", "slope"],
 "data": [
  ["O=C1C(=O)N(CCN2CCOCC2)C(c2ccccn2)/C1=C(/O)c1ccccc1 (stereo not given)", 0.00578],
  ["CCOC(=O)c1cc2c(=O)n3cccc(C)c3nc2n(Cc2cccnc2)c1=N", 0.00416],
  ["COC(=O)c1ccc(CSc2ncnc3c2sc2nc(N4CCOCC4)c4c(c23)CCCC4)o1", 0.00899],
  ["Cc1cc(C)c(C#N)c(SCC(=O)N2CCN(Cc3ccccc3)CC2)n1", 0.00644]
]}

Now consider a different compound.
Q: Which slope reading was recorded for the compound Cc1c(Cl)c(C(F)(F)F)nn1CC(=O)N1CCSCC1 ?
Result: 0.00531

====

Assay: inhibitors of E-selectin induction by TNFa, primary screen, imaging, HUVEC, immunofluorescence, MLSMR starter and 10KST1 sets (AID 487);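 further: signal is fraction of cell area covered by stained E-selectin grains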
Settings: HUVEC TNFalpha-induced E-selectin immunofluorescence imaging, at 2 µM; stronger effect = higher value
Label 1 for high-side inhibition (at or above -40%) and -1 for low-side inhibition (below it).

Some entries whose results are on file:
{"columns": ["Compound", "Class Assignment"],
 "data": [
  ["CCN(CC)CC#CCOC(=O)C(O)(c1ccccc1)C1CCCCC1 (stereo unspecified)", 1],
  ["O=C(O)c1ccccc1S", -1],
  ["Cc1nnc(SCC2=C(C(=O)O)N3C(=O)[C@@H](NC(=O)Cn4cnnn4)[C@H]3SC2)s1", -1]
]}

Read the next record carefully.
Q: Is inhibition at least -40%? Consider Cc1nnc(C)n1/N=C/c1cc(Br)cc(Br)c1O
Result: -1

====

Assay: DUSP6 inhibitors restoring Erk phosphorylation by chemical complementation, primary imaging in DUSP6-transfected HeLa (AID 609)
Conditions: HeLa MKP-3 transfected, phospho-Erk imaging KS statistic; measured here: nuclear c-Myc green intensity z-score; at 10 µM; cells stimulated with TPA for 15 min
Readout: z-score
Hey, just send me the number, nothing else.

# annotated cases, reported z-score shown
{"columns": ["Record Smiles", "Reading"],
 "data": [
  ["CCCCCCCC(=O)OCC(=O)[C@@]1(O)CC[C@H]2[C@@H]3CCC4=CC(=O)CC[C@]4(C)[C@H]3[C@@H](O)C[C@@]21C", -1.25],
  ["C=CCOc1nc2c(c(=O)n(C)c(=O)n2C)n1Cc1ccccc1Cl", -0.0292],
  ["COc1cccc(-c2nc(N3CCN(Cc4ccccc4)CC3)c3ccccc3n2)c1O", 0.0703]
]}

Q: Reported z-score for CC(C)Cc1nc2n[nH]c(N)c2c2c1CCC2 : what is it?
Result: -0.778

Q: Which z-score value belongs to COc1cc(C)nc(Oc2ccc(=O)n(C)n2)n1 ?
Result: -0.292

====

Molecular target: Dual specificity protein phosphatase 6 (Homo sapiens)
Assay: DUSP6 inhibitors restoring Erk phosphorylation by chemical complementation, primary imaging in DUSP6-transfected HeLa (AID 609);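 on inhibition: phospho-Erk level distribution per well compared with pooled transfected vehicle control wells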
Settings: HeLa MKP-3 transfected, phospho-Erk imaging KS statistic; at 10 µM; stronger effect = higher value; cells stimulated with TPA for 15 min
Given measured inhibition, output yes (1) if it is greater than or equal to 10% and no (0) if not.

See these solved cases before continuing.
{"columns": ["Molecule", "Class Assignment"],
 "data": [
  ["CCn1cc(C(=O)O)c(=O)c2cc(F)c(N3CCNCC3)nc21", "no (0)"],
  ["CCOC(=O)C1=C(c2ccccc2)NC(SCC(=O)Nc2ccccc2C)=C(C#N)C1c1ccco1 (stereo unspecified)", "no (0)"],
  ["CC(C)c1nc2n[nH]c(N)c2c2c1CCC2", "no (0)"],
  ["CN(CC(O)COc1ccc(OCC(O)CN(C)C2CCCCC2)cc1)C1CCCCC1 (stereo unspecified)", "yes (1)"],
  ["Cc1c(N=Cc2c(O)n(C3CCCCC3)c(=O)[nH]c2=O)c(=O)n(-c2ccccc2)n1C", "yes (1)"],
  ["CN(C)CCCOC(=O)C1c2ccccc2Oc2ccccc21", "no (0)"],
  ["Cn1c(OCc2ccc3c(c2)OCO3)nc2c1c(=O)n(Cc1cccc(Cl)c1)c(=O)n2C", "no (0)"],
  ["CCC(=O)OC1=C2C(=Nc3c(c(=O)n(C)c(=O)n3C)C2c2ccccc2)c2ccccc21 (stereo unspecified)", "no (0)"]
]}

Q: Please indicate if the recorded inhibition for CN(C)c1nc2n(c(=O)n1)C(C#N)CS2 (stereo unspecified) meets or exceeds 10%.
Result: yes (1)

Q: Evaluate COc1ccc(C2CC(=O)C(C=NCCN3CCOCC3)=C(O)C2)cc1 (stereo unspecified) : inhibition at minimum 10%?
Result: no (0)

Q: In plain terms: is recorded inhibition at least 10% for O=C1C2ON(c3ccccc3)C(c3ccncc3)C2C(=O)N1c1ccccc1 (stereo unspecified) ?
Result: no (0)

====

inhibition values for the compounds below.
Target: Dual specificity protein phosphatase 6 (Homo sapiens)
Experiment: DUSP6 inhibitors restoring Erk phosphorylation by chemical complementation, primary imaging in DUSP6-transfected HeLa (AID 609);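 on inhibition: phospho-Erk level distribution per well compared with pooled transfected vehicle control wells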
Details: HeLa MKP-3 transfected, phospho-Erk imaging KS statistic; at 10 µM; stronger effect = higher value; cells stimulated with TPA for 15 min
The reply should be a number in %, with the unit left off.

{"columns": ["Compound", "Study Target", "inhibition (%)"],
 "data": [
  ["COCCCNC(=O)c1c(N)n(/N=C/c2cccs2)c2nc3ccccc3nc12", "Dual specificity protein phosphatase 6 (Homo sapiens)", 17.4],
  ["CCOc1ccccc1N1CCN(c2nc3ccccc3nc2C(C#N)C(=O)OC)CC1 (centres undefined)", "Dual specificity protein phosphatase 6 (Homo sapiens)", -9.53]
]}

Q: Item under review: CCOC(=O)CSc1nc(-c2ccncc2)ccc1C#N . Reported inhibition?
Result: -3.95

Q: Which inhibition value is on record for Cc1ccc(/C(O)=C2/C(=O)C(=O)N(Cc3ccco3)C2c2cccs2)cc1 (centres undefined) ?
Result: -18.6

Q: Requested read-out: inhibition. Entry: CC(C)OC(=O)C(C)(C)Oc1ccc(C(=O)c2ccc(Cl)cc2)cc1
Result: -8.38

====

Biological target: Voltage-gated potassium channel subunit beta-2 (Rattus norvegicus) (UniProt P62483)
Sequence (P62483 whole entry, looked up): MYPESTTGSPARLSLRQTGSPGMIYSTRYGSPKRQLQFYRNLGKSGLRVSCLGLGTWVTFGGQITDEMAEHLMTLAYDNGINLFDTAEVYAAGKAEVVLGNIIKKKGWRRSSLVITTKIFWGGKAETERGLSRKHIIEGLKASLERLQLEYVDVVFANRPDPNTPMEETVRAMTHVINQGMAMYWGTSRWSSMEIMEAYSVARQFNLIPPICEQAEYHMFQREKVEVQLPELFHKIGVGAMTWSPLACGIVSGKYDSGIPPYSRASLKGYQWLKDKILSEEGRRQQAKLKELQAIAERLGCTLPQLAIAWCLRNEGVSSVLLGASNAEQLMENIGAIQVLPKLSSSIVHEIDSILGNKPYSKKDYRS
Experiment: KvBeta positive modulators, primary screen, biochemical, NADPH fluorescence (AID 623);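 further: fluorescence intensity change per second fitted from 20 to 320 s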
Settings: Recombinant KvBeta, NADPH fluorescence decrease slope, 10 min; at 10 µM; stronger effect = lower value
Entries and their NADPH fluorescence slope values follow.
Form field (numeric): enter value without unit.

Example cases with answers are listed next.
{"columns": ["Molecule", "NADPH fluorescence slope"],
 "data": [
  ["CN1CCC(=C2c3ccccc3C=Cc3ccccc32)CC1", "-6.6e-05"],
  ["CNC(=O)Nc1cccc(NC(=O)NC)n1", -0.000144]
]}

Q: Under Voltage-gated potassium channel subunit beta-2 (Rattus norvegicus) (UniProt P62483): NADPH fluorescence slope value of CCCCCC(=O)O[C@]1(C(C)=O)CC[C@H]2[C@@H]3CCC4=CC(=O)CC[C@]4(C)[C@H]3CC[C@@]21C ?
Result: -6.6e-05

Q: Which NADPH fluorescence slope is reported with Voltage-gated potassium channel subunit beta-2 (Rattus norvegicus) (UniProt P62483) for this entry: COCc1cc(C)nc(N)c1C#N ?
Result: 9.7e-06

Q: Identify the measured NADPH fluorescence slope of COc1ccc(C2N3CC4(C)CN2CC(C)(C3)C4O)cc1OC (stereo unspecified) for Voltage-gated potassium channel subunit beta-2 (Rattus norvegicus) (UniProt P62483).
Result: -7.1e-05
